# Tested on: Escherichia coli TOP10;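 also: peptides expressed intracellularly from a pBAD plasmid library in pooled LB shake-flask culture, induced with 0.3% L-arabinose, DNA abundance read by NGS, three biological replicates, DESeq2 with apeglm shrinkage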
# Assay comment: shrunken log2 fold change of peptide-encoding DNA abundance (4.5 h post-induction vs induction); higher = less antimicrobial activity (less host growth inhibition)
# Test context: time post-induction: 4.5 h; library: site-saturation at positions 5, 18, 19, 20
Would you mind classing the entries by shrunken log2 fold change? Ranges: one: < -0.2; two: ≥ -0.2 and < 0.1; three: ≥ 0.1

[[record]]
residue_sequence = "RRIRKRPPRLPRPRPRPQDTPRP"
class_label = "two"

[[record]]
residue_sequence = "RRIRARPPRLPRPRPRPQFYPRP"
class_label = "two"

[[record]]
residue_sequence = "RRIRQRPPRLPRPRPRPPMGPRP"
class_label = "three"

[[record]]
residue_sequence = "RRIRIRPPRLPRPRPRPQHYPRP"
class_label = "one"

[[record]]
residue_sequence = "RRIRDRPPRLPRPRPRPTQQPRP"
class_label = "three"

[[record]]
residue_sequence = "RRIRKRPPRLPRPRPRPMAIPRP"
class_label = "three"

[[record]]
residue_sequence = "RRIRWRPPRLPRPRPRPGKCPRP"
class_label = "two"

[[record]]
residue_sequence = "RRIRTRPPRLPRPRPRPKVKPRP"
class_label = "two"

[[record]]
residue_sequence = "RRIRYRPPRLPRPRPRPYWCPRP"
class_label = "two"

[[record]]
residue_sequence = "RRIRWRPPRLPRPRPRPFTLPRP"
class_label = "three"

[[record]]
residue_sequence = "RRIRDRPPRLPRPRPRPIYKPRP"
class_label = "two"

[[record]]
residue_sequence = "RRIRDRPPRLPRPRPRPVHKPRP"
class_label = "one"

[[record]]
residue_sequence = "RRIRARPPRLPRPRPRPHISPRP"
class_label = "one"

[[record]]
residue_sequence = "RRIRCRPPRLPRPRPRPRGKPRP"
class_label = "three"

